# System: DEL (T-Cell Non-Hodgkin's Lymphoma)
# assayOverview: Bliss excess, mean over the matrix (fraction); higher = more synergy
Returns one of met or not met; met when Bliss excess is >= 0.02.

Enquiry: Say whether C[C@@H](c1ccc2nccn2c1)n1nnc2ncc(-c3cnn(C)c3)nc21 [Savolitinib] + Cc1c2c(nn1C)CSCc1cc(n(C)n1)CSc1cc(c3ccccc3c1)OCCCc1c(C(=O)O)n(C)c3c-2c(Cl)ccc13 [AZD5991] (first compound max 1 µM, 7x7, partner max 1 µM) shows Bliss excess of 0.02 or more.
Return: not met

Enquiry: For this molecule, is measured Bliss excess 0.02 or higher? COc1cccc(OCCCN)c1-c1cc(Nc2cnc(C#N)cn2)n[nH]1 [Prexasertib] + C[C@@H]1COCCN1C2=NC(=NC(=C2)C3(CC3)[S@](=N)(=O)C)C4=C5C=CNC5=NC=C4 [AZD6738] (first compound max 1 µM, 7x7, partner max 10 µM)
Return: not met

Enquiry: Exam item: decide whether the reported Bliss excess for NC1(C(=O)N[C@@H](CCO)c2ccc(Cl)cc2)CCN(c2ncnc3[nH]ccc23)CC1 [Capivasertib] + CC(=O)c1c(C)c2cnc(Nc3ccc(N4CCNCC4)cn3)nc2n(C2CCCC2)c1=O [Palbociclib] (first compound max 10 µM, 7x7, partner max 10 µM) is at least 0.02.
Return: met

Enquiry: For this molecule, is measured Bliss excess 0.02 or higher? C[C@@H]1COCCN1c1cc(C2([S@](C)(=N)=O)CC2)nc(-c2ccnc3[nH]ccc23)n1 [AZD6738] + O=C(c1cc(Cc2n[nH]c(=O)c3ccccc23)ccc1F)N1CCN(C(=O)C2CC2)CC1 [Olaparib] (first compound max 10 µM, 7x7, partner max 10 µM)
Return: met

Enquiry: In plain terms: is recorded Bliss excess at least 0.02 for Cc1cc2ncnn2cc1Nc1ncc2c(n1)n(C1CCOCC1)c(=O)n2C [AZD7648] + O=C(c1cc(Cc2n[nH]c(=O)c3ccccc23)ccc1F)N1CCN(C(=O)C2CC2)CC1 [Olaparib] (first compound max 10 µM, 7x7, partner max 10 µM) ?
Return: not met

Enquiry: Is Bliss excess at least 0.02? Consider CN(CCO)CC[C@H](CSc1ccccc1)Nc1ccc(S(=O)(=O)NC(=O)c2ccc(N3CCC([C@@H](O)c4ccccc4-c4ccc(Cl)cc4)CC3)cc2)cc1S(=O)(=O)C(F)(F)F [AZD4320] + C[C@@H]1COCCN1C2=NC(=NC(=C2)C3(CC3)[S@](=N)(=O)C)C4=C5C=CNC5=NC=C4 [AZD6738] (first compound max 1 µM, 7x7, partner max 10 µM)
Return: met

---

Provide the recorded Bliss excess for the entries that follow.
# Tested on: HO-1-N-1 (Oral Cavity Carcinoma)
# assayOverview: Bliss excess, mean over the matrix (fraction); higher = more synergy
// return a plain number; no unit text

The molecule listed as Cc1c2c(nn1C)CSCc1cc(n(C)n1)CSc1cc(c3ccccc3c1)OCCCc1c(C(=O)O)n(C)c3c-2c(Cl)ccc13 [AZD5991] + C1CN(CCC1(C(=O)N[C@@H](CCO)C2=CC=C(C=C2)Cl)N)C3=NC=NC4=C3C=CN4 [Capivasertib] (first compound max 1 µM, 7x7, partner max 3 µM) shows Bliss excess equal to 0.0001

Briefly, Bliss excess measured for CN(CCO)CC[C@H](CSc1ccccc1)Nc1ccc(S(=O)(=O)NC(=O)c2ccc(N3CCC([C@@H](O)c4ccccc4-c4ccc(Cl)cc4)CC3)cc2)cc1S(=O)(=O)C(F)(F)F [AZD4320] + CC(=O)O[C@H]1C(=O)[C@@]2(C)[C@H]([C@H](OC(=O)c3ccccc3)[C@]3(O)C[C@H](OC(=O)[C@H](O)[C@@H](NC(=O)c4ccccc4)c4ccccc4)C(C)=C1C3(C)C)[C@]1(OC(C)=O)CO[C@@H]1C[C@@H]2O [Paclitaxel] (first compound max 1 µM, 7x7, partner max 3 µM) : 0.0178

response.value for C[C@@H]1COCCN1c1cc(C2([S@](C)(=N)=O)CC2)nc(-c2ccnc3[nH]ccc23)n1 [AZD6738] + O=C(c1cc(Cc2n[nH]c(=O)c3ccccc23)ccc1F)N1CCN(C(=O)C2CC2)CC1 [Olaparib] (first compound max 10 µM, 7x7, partner max 10 µM) (field: Bliss excess) = -0.0196

Summary for this molecule, CN(CCO)CC[C@H](CSc1ccccc1)Nc1ccc(S(=O)(=O)NC(=O)c2ccc(N3CCC([C@@H](O)c4ccccc4-c4ccc(Cl)cc4)CC3)cc2)cc1S(=O)(=O)C(F)(F)F [AZD4320] + Cn1cnc2c(F)c(Nc3ccc(Br)cc3Cl)c(C(=O)NOCCO)cc21 [Selumetinib] (first compound max 1 µM, 7x7, partner max 3 µM) : Bliss excess is -0.0533

The reported Bliss excess of the molecule CS(=O)(=O)CCNCc1ccc(-c2ccc3ncnc(Nc4ccc(OCc5cccc(F)c5)c(Cl)c4)c3c2)o1 [Lapatinib] + Cn1cnc2c(F)c(Nc3ccc(Br)cc3Cl)c(C(=O)NOCCO)cc21 [Selumetinib] (first compound max 10 µM, 7x7, partner max 10 µM) was 0.145

Value of measured Bliss excess for the entry COc1cccc2c1C(=O)c1c(O)c3c(c(O)c1C2=O)C[C@@](O)(C(=O)CO)C[C@@H]3O[C@H]1C[C@H](N)[C@H](O)[C@H](C)O1 [Doxorubicin] + Cc1cc2ncnn2cc1Nc1ncc2c(n1)n(C1CCOCC1)c(=O)n2C [AZD7648] (first compound max 1 µM, 7x7, partner max 10 µM) : 0.0808

---

# System: LNCaP-Clone-FGC (Prostate Carcinoma)
# assayOverview: combination Emax (second highest fraction inhibited in the dose matrix, 72 h); higher = more inhibition; extreme values may be limits of the assay
Exercise: for every item that follows, state its recorded combination Emax.
Lab note: record the figure alone, no unit after it.

Entry C[C@@H](c1ccc2nccn2c1)n1nnc2ncc(-c3cnn(C)c3)nc21 [Savolitinib] + CN(CC[C@H](CSC1=CC=CC=C1)NC2=C(C=C(C=C2)S(=O)(=O)NC(=O)C3=CC=C(C=C3)N4CCC(CC4)[C@H](C5=CC=CC=C5C6=CC=C(C=C6)Cl)O)S(=O)(=O)C(F)(F)F)CCO [AZD4320] (first compound max 1 µM, 7x7, partner max 1 µM) ; combination Emax = 0.258

The value of combination Emax measured for the molecule NC1(C(=O)N[C@@H](CCO)c2ccc(Cl)cc2)CCN(c2ncnc3[nH]ccc23)CC1 [Capivasertib] + C[C@@H]1COCCN1C2=NC(=NC(=C2)C3(CC3)[S@](=N)(=O)C)C4=C5C=CNC5=NC=C4 [AZD6738] (first compound max 10 µM, 7x7, partner max 10 µM) turned out to be 0.989

Value of combination Emax reported for the molecule COc1nnc2ccc(N3CCC(c4ccc(OCCN5CCN(C)C(=O)[C@H]5C)cc4)CC3)nn12 [AZD5153] + Cn1cnc2c(F)c(Nc3ccc(Br)cc3Cl)c(C(=O)NOCCO)cc21 [Selumetinib] (first compound max 1 µM, 7x7, partner max 10 µM) is 0.728

Record CCN(CCO)CCCOc1ccc2c(Nc3cc(CC(=O)Nc4cccc(F)c4)[nH]n3)ncnc2c1 [AZD2811] + O=C(c1cc(Cc2n[nH]c(=O)c3ccccc23)ccc1F)N1CCN(C(=O)C2CC2)CC1 [Olaparib] (first compound max 1 µM, 7x7, partner max 10 µM) , field combination Emax: 0.495

For reference, reported combination Emax for CN(C)CCCOc1ccc(-c2ccc3ncc4c(c3c2)n(C2CCOCC2)c(=O)n4C)cn1 [AZD0156] + C=CCn1c(=O)c2cnc(Nc3ccc(N4CCN(C)CC4)cc3)nc2n1-c1cccc(C(C)(C)O)n1 [AZD1775] (first compound max 1 µM, partner max 1 µM) stands at 0.738

Recorded combination Emax (molecule NC1(C(=O)N[C@@H](CCO)c2ccc(Cl)cc2)CCN(c2ncnc3[nH]ccc23)CC1 [Capivasertib] + CC(C)n1c(=O)n(C)c2cnc3cc(F)c(-c4ccc(OCCCN5CCCCC5)nc4)cc3c21 [AZD1390] (first compound max 10 µM, 7x7, partner max 0.3 µM) ): 0.956

combination Emax in this record for COc1cccc(OCCCN)c1-c1cc(Nc2cnc(C#N)cn2)n[nH]1 [Prexasertib] + Cc1cc2ncnn2cc1Nc1ncc2c(n1)n(C1CCOCC1)c(=O)n2C [AZD7648] (first compound max 1 µM, 7x7, partner max 10 µM) : 0.83

Entry C=CCn1c(=O)c2cnc(Nc3ccc(N4CCN(C)CC4)cc3)nc2n1-c1cccc(C(C)(C)O)n1 [AZD1775] + O=C(c1cc(Cc2n[nH]c(=O)c3ccccc23)ccc1F)N1CCN(C(=O)C2CC2)CC1 [Olaparib] (first compound max 1 µM, partner max 10 µM) — recorded combination Emax = 0.77

// recorded combination Emax for COc1nnc2ccc(N3CCC(c4ccc(OCCN5CCN(C)C(=O)[C@H]5C)cc4)CC3)nn12 [AZD5153] + C[C@@H]1COCCN1C2=NC(=NC(=C2)C3(CC3)[S@](=N)(=O)C)C4=C5C=CNC5=NC=C4 [AZD6738] (first compound max 1 µM, 7x7, partner max 10 µM) : 0.791

COc1cccc(OCCCN)c1-c1cc(Nc2cnc(C#N)cn2)n[nH]1 [Prexasertib] + CCc1c2c(nc3ccc(O)cc13)-c1cc3c(c(=O)n1C2)COC(=O)[C@]3(O)CC [SN-38] (first compound max 1 µM, 7x7, partner max 0.3 µM) yielded combination Emax of 0.766

Briefly, combination Emax measured for CC1(C)CCC(CN2CCN(c3ccc(C(=O)NS(=O)(=O)c4ccc(NCC5CCOCC5)c([N+](=O)[O-])c4)c(Oc4cnc5[nH]ccc5c4)c3)CC2)=C(c2ccc(Cl)cc2)C1 [Venetoclax] + CN(C)CCCOc1ccc(-c2ccc3ncc4c(c3c2)n(C2CCOCC2)c(=O)n4C)cn1 [AZD0156] (first compound max 1 µM, 7x7, partner max 1 µM) : 0.35

Record summary for CC(=O)c1c(C)c2cnc(Nc3ccc(N4CCNCC4)cn3)nc2n(C2CCCC2)c1=O [Palbociclib] + CN(CC[C@H](CSC1=CC=CC=C1)NC2=C(C=C(C=C2)S(=O)(=O)NC(=O)C3=CC=C(C=C3)N4CCC(CC4)[C@H](C5=CC=CC=C5C6=CC=C(C=C6)Cl)O)S(=O)(=O)C(F)(F)F)CCO [AZD4320] (first compound max 10 µM, 7x7, partner max 1 µM) : reported combination Emax = 0.534

combination Emax in this record for Cc1cc2ncnn2cc1Nc1ncc2c(n1)n(C1CCOCC1)c(=O)n2C [AZD7648] + CCN(CCO)CCCOc1ccc2c(Nc3cc(CC(=O)Nc4cccc(F)c4)[nH]n3)ncnc2c1 [AZD2811] (first compound max 10 µM, 7x7, partner max 1 µM) : 0.535

Short answer for CCN(CCO)CCCOc1ccc2c(Nc3cc(CC(=O)Nc4cccc(F)c4)[nH]n3)ncnc2c1 [AZD2811] + C=CCn1c(=O)c2cnc(Nc3ccc(N4CCN(C)CC4)cc3)nc2n1-c1cccc(C(C)(C)O)n1 [AZD1775] (first compound max 1 µM, partner max 1 µM) : combination Emax was 0.699

src = the supplement of paper PMC11061612
